# TESTED_ON: BaF3_HER2YVMA cells (Homo sapiens, UniProt P04626, DUP772-775, cells depend on it)
# Sequence (P04626 with tags, fused parts or gaps DUP772-775): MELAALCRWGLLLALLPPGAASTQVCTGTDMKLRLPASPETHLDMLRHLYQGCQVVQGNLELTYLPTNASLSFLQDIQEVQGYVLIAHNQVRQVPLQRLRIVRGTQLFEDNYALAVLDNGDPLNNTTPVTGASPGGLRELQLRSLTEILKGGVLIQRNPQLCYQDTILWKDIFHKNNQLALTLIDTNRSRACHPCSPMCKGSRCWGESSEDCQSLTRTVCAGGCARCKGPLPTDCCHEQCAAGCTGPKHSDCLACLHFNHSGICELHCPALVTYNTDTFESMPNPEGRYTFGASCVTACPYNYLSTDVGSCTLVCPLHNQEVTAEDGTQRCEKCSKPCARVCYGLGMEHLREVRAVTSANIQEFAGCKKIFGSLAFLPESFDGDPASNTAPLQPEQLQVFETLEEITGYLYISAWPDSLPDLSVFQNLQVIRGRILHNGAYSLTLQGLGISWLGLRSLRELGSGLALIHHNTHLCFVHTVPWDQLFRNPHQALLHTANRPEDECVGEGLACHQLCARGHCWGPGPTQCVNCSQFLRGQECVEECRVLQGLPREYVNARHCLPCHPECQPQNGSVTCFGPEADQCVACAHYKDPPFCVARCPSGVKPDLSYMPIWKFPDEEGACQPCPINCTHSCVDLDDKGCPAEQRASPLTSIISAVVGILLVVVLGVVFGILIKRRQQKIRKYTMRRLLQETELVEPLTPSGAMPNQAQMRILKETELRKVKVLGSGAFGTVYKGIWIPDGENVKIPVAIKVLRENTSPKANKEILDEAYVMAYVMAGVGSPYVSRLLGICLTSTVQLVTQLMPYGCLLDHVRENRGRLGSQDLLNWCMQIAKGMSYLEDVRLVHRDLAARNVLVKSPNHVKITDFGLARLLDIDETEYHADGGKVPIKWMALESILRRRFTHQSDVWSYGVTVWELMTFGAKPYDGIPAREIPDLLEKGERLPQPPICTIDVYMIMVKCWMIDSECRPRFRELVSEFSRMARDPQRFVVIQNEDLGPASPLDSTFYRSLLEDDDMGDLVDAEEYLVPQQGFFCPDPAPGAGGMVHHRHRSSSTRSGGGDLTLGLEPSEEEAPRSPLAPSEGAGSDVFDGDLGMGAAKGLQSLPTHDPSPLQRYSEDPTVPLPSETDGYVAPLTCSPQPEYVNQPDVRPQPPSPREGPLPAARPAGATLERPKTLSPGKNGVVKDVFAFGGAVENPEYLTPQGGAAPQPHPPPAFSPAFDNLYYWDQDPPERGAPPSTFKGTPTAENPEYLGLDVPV
# METHOD_NOTES: Cell growth inhibition assay (CellTiterGlo), BaF3_HER2YVMA
# Type: cell-based
# ASSAY_CONDITIONS: 3-day treatment, CellTiterGlo, read-out: Cell growth inhibition activity, HER2 - YVMA
In this section we review reported GI50 values for a set of molecules.

Past entries and their recorded results:
ITEM_SMILES | QUANTITY_KIND | OBSERVED_VALUE
C=C(C#N)C(=O)N1CCC(c2ccn3ncnc(Nc4ccc(Oc5ccn6ncnc6c5)c(C)c4)c23)CC1 | GI50 | 1500 to 5000 nM
C#CCN(C)C/C=C/C(=O)N1CCC(c2ccn3ncnc(Nc4ccc(Oc5ccn6ncnc6c5)c(C)c4)c23)CC1 | GI50 | 200 to 500 nM
CO[C@H]1CN(C/C=C/C(=O)N2CCC(c3ccn4ncnc(Nc5ccc(Oc6ccn7ncnc7c6)c(C)c5)c34)CC2)C[C@H]1OC | GI50 | < 200 nM

Lookup: Recorded GI50 of Cc1cc(Nc2ncnn3ccc(N4CCCN(C(=O)/C=C/CN5CCOCC5)CC4)c23)ccc1Oc1ccn2ncnc2c1 , please.
Found: 1500 to 5000 nM

Lookup: Recorded GI50 of Cc1cc(Nc2ncnn3ccc(C4CCN(C(=O)/C=C/CN5CCOCC5)CC4)c23)ccc1Oc1ccn2ncnc2c1 , please.
Found: < 200 nM

Lookup: Recorded GI50 of C=CC(=O)N1CCC(c2ccn3ncnc(Nc4ccc(Oc5ccn6ncnc6c5)c(C)c4)c23)CC1 , please.
Found: < 200 nM

Lookup: Recorded GI50 of C=C(C(=O)O)C(=O)N1CCC(c2ccn3ncnc(Nc4ccc(Oc5ccn6ncnc6c5)c(C)c4)c23)CC1 , please.
Found: 1500 to 5000 nM

###

# TESTED_ON: BaF3_HER2YVMA cells (Homo sapiens, UniProt P04626, DUP772-775, cells depend on it)
# METHOD_NOTES: Cell growth inhibition assay (CellTiterGlo), BaF3_HER2YVMA
# Assay type: cell-based
# ASSAY_CONDITIONS: 3-day treatment, CellTiterGlo, read-out: Cell growth inhibition activity, HER2 - YVMA
QUANTITY_KIND: GI50

COMPOUND | QUANTITY_KIND | OBSERVED_VALUE
Cc1cc(Nc2ncnn3ccc(C4CN(C(=O)/C=C/CN5CCCC5)C4)c23)ccc1Oc1ccn2ncnc2c1 [Example 97] | GI50 | < 200 nM
C=CC(=O)N1CC(n2cc(-c3ccn4ncnc(Nc5ccc(Oc6ccn7ncnc7c6)c(C)c5)c34)cn2)C1 [Example 2] | GI50 | < 200 nM
Cc1cc(Nc2ncnn3ccc(N4CC5(CCN(C(=O)/C=C/CN(C)C)C5)C4)c23)ccc1Oc1ccn2ncnc2c1 [Example 156] | GI50 | 1500 to 5000 nM
COC1CN(C/C=C/C(=O)N2CCC(c3ccn4ncnc(Nc5ccc(Oc6ccn7ncnc7c6)c(C)c5)c34)CC2)C1 [Example 117] | GI50 | < 200 nM
Cc1cc(Nc2ncnn3ccc(C4CCN(C(=O)/C=C/CN5CC(F)C5)CC4)c23)ccc1Oc1ccc2c(c1)ncn2C [Example 162] | GI50 | 500 to 1500 nM
Cc1cc(Nc2ncnn3ccc(C4CN(C(=O)/C=C/CN5CCC(F)CC5)C4)c23)ccc1Oc1ccn2ncnc2c1 [Example 62] | GI50 | < 200 nM
Cc1cc(Nc2ncnn3ccc(C4CN(C(=O)/C(C#N)=C/C(C)(C)C)C4)c23)ccc1Oc1ccn2ncnc2c1 [Example 89] | GI50 | 1500 to 5000 nM
Cc1cc(Nc2ncnn3ccc(C4CN(C(=O)/C=C/CN(C)C)C4)c23)ccc1Oc1cc2ncnn2cn1 [Example 158] | GI50 | < 200 nM

Lookup: Look up GI50 with BaF3_HER2YVMA cells (Homo sapiens, UniProt P04626, DUP772-775, cells depend on it) for this compound: Cc1cc(Nc2ncnn3ccc(N4CCN(C(=O)/C=C/CN(C)C)CC4)c23)ccc1Oc1ccn2ncnc2c1 [Example 22]
Found: < 200 nM

Lookup: Look up GI50 with BaF3_HER2YVMA cells (Homo sapiens, UniProt P04626, DUP772-775, cells depend on it) for this compound: C=C(F)C(=O)N1CC=C(c2ccn3ncnc(Nc4ccc(Oc5ccn6ncnc6c5)c(C)c4)c23)CC1 [Example 26]
Found: 1500 to 5000 nM
